# Test system: Enterovirus
# Measurement Description: Lowest concentration to reduce viral effect by 50% or more against Rhinovirus (RV)-2
# Format: functional
// NB: equality with 10 µM counts as not met; only MIC50 strictly below is met

Molecule | Group Label
CS(=O)(=O)c1ccc(Oc2ccc(Cl)c(Cl)c2)c(C#N)c1 | not met
N#Cc1cc([N+](=O)[O-])ccc1Oc1cccc(Cl)c1 | met
N#Cc1ccc(Oc2ccc(Cl)c(Cl)c2)nc1 | not met
O=[N+]([O-])c1ccc(Oc2ccc(Cl)c(Cl)c2)c([N+](=O)[O-])c1 | not met
Clc1ccc(Oc2ccc(Cl)c(Cl)c2)cc1 | not met
COc1cccc(Oc2ccc([N+](=O)[O-])cc2C#N)c1 | met
N#Cc1cc([N+](=O)[O-])ccc1Oc1c(Cl)cccc1Cl | met
CS(=O)(=O)c1ccc(Oc2ccc(Br)cc2)cc1 | met
CS(=O)(=O)c1ccc(Oc2ccc(Cl)c(Cl)c2)nc1 | met
CS(=O)(=O)c1ccc(Oc2ccc(C(=O)c3ccccc3)cc2)cc1 | not met
N#Cc1ccnc(Oc2ccc(Cl)c(Cl)c2)c1 | not met
N#Cc1cc([N+](=O)[O-])ccc1Oc1ccc(Cl)c(Cl)c1 | met
N#Cc1cc([N+](=O)[O-])ccc1Oc1ccccc1C(F)(F)F | met
N#Cc1cc([N+](=O)[O-])ccc1Oc1ccc(Cl)cc1 | met
N#Cc1cc([N+](=O)[O-])ccc1Oc1ccccc1Br | met
N#Cc1cc(Cl)ccc1Oc1ccc(Cl)c(Cl)c1 | not met
O=[N+]([O-])c1ccc(Oc2ccc(Cl)c(Cl)c2)cc1 | not met
N#Cc1cc([N+](=O)[O-])ccc1Oc1cc(Cl)ccc1Cl | met
N#Cc1cc([N+](=O)[O-])ccc1Oc1ccccc1 | met
O=S(=O)(c1ccc(Oc2ccc(Cl)c(Cl)c2)cc1)C(F)(F)F | not met
N#Cc1cc([N+](=O)[O-])ccc1Oc1cccc2ccccc12 | met
CC(=O)c1ccc(Oc2ccc(Cl)c(Cl)c2)cc1 | met
N#Cc1ccc(Oc2ccc(Cl)c(Cl)c2)cc1 | met
CC(=O)c1ccc(Oc2ccc(S(C)(=O)=O)cc2)cc1 | met
N#Cc1cc(Oc2ccc(Cl)c(Cl)c2)ccc1[N+](=O)[O-] | not met
O=S(=O)(c1ccccc1)c1ccc(Oc2ccc(Cl)c(Cl)c2)cc1 | met
N#Cc1cc([N+](=O)[O-])ccc1Oc1cc(Cl)cc(Cl)c1 | met
N#Cc1cccc(Oc2ccc(Cl)c(Cl)c2)n1 | not met
CC(=O)c1ccc(Oc2ccc([N+](=O)[O-])cc2C#N)cc1 | not met
C[S+]([O-])c1ccc(Oc2ccc(Cl)c(Cl)c2)nc1 (centres undefined) | met
CS(=O)(=O)c1ccc(Oc2ccccc2Cl)cc1 | not met
COc1ccc(Oc2ccc(S(C)(=O)=O)cc2)cc1 | not met
N#Cc1cc([N+](=O)[O-])ccc1Oc1ccccc1Cl | met
CS(=O)(=O)c1ccc(Oc2ccc(Cl)cc2)cc1 | met
CS(=O)(=O)c1ccc(Oc2ccc([N+](=O)[O-])cc2)cc1 | not met
Cc1ccc(Oc2ccc(C#N)cn2)cc1 | not met
CS(=O)(=O)c1ccc(Oc2ccc(Cl)c(Cl)c2)cc1 | met
COc1ccc(Oc2ccc([N+](=O)[O-])cc2C#N)cc1OC | not met
CS(=O)(=O)c1ccc(Oc2ccc(O)cc2)cc1 | not met
CS(=O)(=O)c1ccc(Oc2ccc([N+](=O)[O-])cc2C#N)cc1 | not met
Cc1ccc(Oc2ccc([N+](=O)[O-])cc2C#N)cc1 | met
N#Cc1ccc(Oc2ccc(Cl)cc2)nc1 | not met
CC(=O)Nc1ccc(Oc2ccc(Cl)c(Cl)c2)c(C#N)c1 | met
CSc1ccc(Oc2ccc(Cl)c(Cl)c2)nc1 | met
N#Cc1cc([N+](=O)[O-])ccc1Oc1ccc(Cl)cc1Cl | met
COc1ccccc1Oc1ccc([N+](=O)[O-])cc1C#N | met
CS(=O)(=O)c1cccnc1Oc1ccc(Cl)c(Cl)c1 | not met
O=C(O)c1cc([N+](=O)[O-])ccc1Oc1ccc(Cl)c(Cl)c1 | not met
CS(=O)(=O)c1ccc(Oc2ccc(Cl)c(Cl)c2)c([N+](=O)[O-])c1 | not met
